# study.target: hVR1 (Homo sapiens, UniProt Q8NER1)
# Construct: expressed in transfected cells
# Sequence (Q8NER1 whole entry): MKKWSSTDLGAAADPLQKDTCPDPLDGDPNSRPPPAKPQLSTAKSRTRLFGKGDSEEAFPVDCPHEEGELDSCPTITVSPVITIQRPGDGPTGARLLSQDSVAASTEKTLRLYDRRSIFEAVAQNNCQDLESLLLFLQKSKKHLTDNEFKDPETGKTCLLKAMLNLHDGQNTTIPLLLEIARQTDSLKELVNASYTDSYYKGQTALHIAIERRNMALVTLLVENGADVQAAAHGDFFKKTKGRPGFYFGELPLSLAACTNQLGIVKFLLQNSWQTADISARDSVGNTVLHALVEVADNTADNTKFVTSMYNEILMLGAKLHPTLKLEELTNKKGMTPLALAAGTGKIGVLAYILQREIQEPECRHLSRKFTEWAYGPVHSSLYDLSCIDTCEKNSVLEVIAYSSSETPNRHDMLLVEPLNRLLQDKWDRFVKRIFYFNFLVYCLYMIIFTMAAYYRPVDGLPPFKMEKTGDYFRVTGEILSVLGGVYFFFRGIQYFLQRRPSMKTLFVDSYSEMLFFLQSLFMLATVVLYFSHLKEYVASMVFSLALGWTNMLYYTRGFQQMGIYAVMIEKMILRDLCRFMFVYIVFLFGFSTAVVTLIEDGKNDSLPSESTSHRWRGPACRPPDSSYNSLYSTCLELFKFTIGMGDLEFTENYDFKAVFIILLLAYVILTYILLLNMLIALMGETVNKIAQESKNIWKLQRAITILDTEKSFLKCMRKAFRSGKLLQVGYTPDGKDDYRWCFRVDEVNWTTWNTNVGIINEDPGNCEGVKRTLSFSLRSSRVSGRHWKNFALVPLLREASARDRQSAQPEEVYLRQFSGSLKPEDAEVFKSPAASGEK
# assay.details: hVR1 FLIPR (Fluorometric Image Plate Reader) screening assay, IC50 determination
# Format: cell-based
# cond: agonist capsaicin; transfected CHO cells stably expressing hVR1
recorded.metric: IC50 (nM)

[A] O=C(Nc1ccc2sc(CO)nc2c1)c1ccc(Br)cc1 [Example 2]
[B] CC(C)Oc1ccc(C(=O)Nc2ccc3sc(CO)nc3c2)cc1 [Example 19]
[C] CC(O)c1nc2cc(NC(=O)c3ccc(C(C)(C)C)cc3)ccc2s1 (stereo not drawn) [Example 71]
Inquiry: Could you please order the items by IC50, going from the lowest number to the highest? Your reply should list the labels following the order given in the request.
Reply text: A, B, C
(A: 10 nM, B: 50 nM, C: 200 nM)

----------
# study.target: hVR1 (Homo sapiens, UniProt Q8NER1)
# Construct: expressed in transfected cells
# assay.details: hVR1 FLIPR (Fluorometric Image Plate Reader) screening assay, IC50 determination
# Assay type: cell-based
# cond: agonist H+/MES buffer (pH 5.2); transfected CHO cells stably expressing hVR1
recorded.metric: IC50 (nM)

compound	IC50, nM
CC(C)Oc1ccc(C(=O)Nc2ccc3sc(CO)nc3c2)cc1	45
O=C(Nc1ccc2sc(CO)nc2c1)c1ccc(Br)cc1	60
